# System: DMS-273
# Test details: NCI tumour cell line growth inhibition, 48 h
Activity calls are given as the source filed them. Cut-off read from the data, not from the text of the source: active = GI50 up to about 1.1 µM and inactive = higher.
Measured quantity: GI50

>>> df
                                   molecule           data_value
0  CS(=O)(=O)OCCN1CCN(C(=O)c2cccc3c(Nc4ccc(S(=O)(=O)N=C(N)N)cc4)c4ccccc4nc23)CC1  > 100 µM (inactive)
1  Nc1c(-c2ccc(-c3c(N)[n+]([O-])c4ccccc4[n+]3[O-])cc2)[n+]([O-])c2ccccc2[n+]1[O-]   14.2 µM (inactive)
2  Cc1ccc(NC(=O)CCC(=O)C2CC(=O)CC/C2=N\NC(=O)c2cc3ccccc3cc2O)cc1C (stereo not drawn)   13.2 µM (inactive)
